Measurement label: melting point

Below, each entry is followed by its recorded melting point result.
| Compound | melting point |
| --- | --- |
| CCn1c2ccccc2c2cc3cccc(C=O)c3cc21 | 130 to 133 °C |
| CC(=O)OC(CF)c1ccccc1S(=O)(=O)NC(C)(C)C (centres undefined) | 118 to 119 °C |
| N#Cc1cnc2sc(I)cc2c1Cl | 181 to 182 °C |

Request: Supply measured melting point of CCCCCCCCCCCCCCCCC12CCC3=C(CCc4cc(OC)ccc43)C1CCC2=O (centres undefined) in your reply.
Result: 54 to 56 °C

###

Catalogue of melting point values

Below, each entry is followed by its recorded melting point result.
| Molecule | Result |
| --- | --- |
| CC1OC(=O)c2c(O)cccc21 (stereo not given) | 107 to 108 °C |
| CC1(C)OC(=O)Nc2ccc(-c3ccccc3Cl)cc21 | 181 to 182 °C |
| CC(C)CN(C)c1cc(F)cc(C(=O)Nc2ccc(OCCN3CCOCC3)c3ccccc23)c1 | 126 to 128 °C |

Request: Supply measured melting point of N#CNC(=NCCN1CCC(C(=O)c2ccc(F)cc2)CC1)N1CCCCC1 in your reply.
Result: 139 to 141 °C

Request: Supply measured melting point of CCC(=C1SCN(C)CS1)c1ccc(Oc2ccccc2)cc1 in your reply.
Result: 96 to 96.5 °C

Request: Supply measured melting point of CC(=O)N(C)c1cccc(Sc2ccc([N+](=O)[O-])cc2)c1 in your reply.
Result: 66 to 68 °C

Request: Supply measured melting point of C[Si](Cn1nc[nH]c1=S)(c1ccccc1F)c1ccccc1F in your reply.
Result: 105 °C

Request: Supply measured melting point of CC(C)(C)[Si](C)(C)Oc1ccc2cc3c(cc2c1)C(=O)c1cc2cc(O[Si](C)(C)C(C)(C)C)ccc2cc1C3=O in your reply.
Result: > 270 °C

Request: Supply measured melting point of O=C1NC(=O)c2c1c(O)nc1cc(Cl)ccc21 in your reply.
Result: > 350 °C

Request: Supply measured melting point of COC(=O)C(C)=C1CCC2C3CCC4=CC(=O)CCC4(C)C3CCC12C (stereo not given) in your reply.
Result: 149 to 151 °C
